growth inhibition overview
assay: NCI Yeast Anticancer Drug Screen. Data for the mec2-1 strain (AID 157); conditions: S. cerevisiae mec2-1 strain, at 50.0 µM, active compounds read high
The panel holds about 79,000 compounds, 15% with a hit somewhere; the sample as a whole holds those more often.

Molecule	growth inhibition [%]
C=CCn1nnc(N)n1	7.15
CC1(c2ccccc2)CC12C(=O)NC(=O)NC2=O (stereo not given)	-22.6
OCC1OC(n2nnc3cc(Cl)c(Cl)cc32)C(O)C1O (stereo not given)	-0.8
CCN(CC)CCn1c(=O)c2ccccc2n(CCN(CC)CC)c1=O	13.1
O=C(Nc1ccc(S(=O)(=O)F)cc1)/C(=C\c1ccc([N+](=O)[O-])cc1)c1cccc(Cl)c1	4.3
CN1CCC(O)(c2ccccc2)C(O)C1 (stereo not given)	29.1
CCCCOP(O)(=S)OCCCC.[Y]	2.95
N#CC(C#N)=Cc1ccccc1C(=O)O	11.3
[C-]#[O+].[C-]#[O+].[Ir].[O-]c1cccc2cccnc12	-27.6
CCCc1c(C#N)c(S)[nH]c(=S)c1C#N	20.4
CCCCCCCC(N)CC(=O)O (stereo not given)	-44.2
CCCCCCCCCCC(O)[C@H]1CCC(C2CC[C@H]([C@H](O)CCCCCCCCCCC(O)CC3=CC(C)OC3=O)O2)O1 (stereo not given in full)	-5.15
O=P(OCCCl)(OCCCl)OCCCl	-19.4
O=[N+]([O-])c1cc2n[nH]nc2c2nonc12	11.3
NC(=O)CCl	-0.8
NCCCN1CCN(c2ccccc2)CC1	-30.2
NC1=Nc2ccccc2Sc2ccccc21	-38.8
CCCN(C)C(C)(C)C(=O)c1ccccc1	-3.95
c1cc2[se][se]c3c4cccc5[se][se]c(c(c1)c23)c54	-8.7
CC(=O)Cc1c[nH]c2ccccc12	-41.3
CC1=CC2=C(C)C3(CC3)[C@@](C)(O)C(=O)C2=C1	14.3
NCCCC(N)P(=O)(O)O (stereo not given)	-1.6
COc1cc(O)c([N+](=O)[O-])cc1[N+](=O)[O-]	0.35
COC1C(O)CC(OC2CC(Oc3cc4cc5c(c(O)c4c(O)c3C)C(=O)[C@@H](OC3CC(OC4CC(OC6CC(C)(O)C(OC(C)=O)C(C)O6)C(O)C(C)O4)C(O)C(C)O3)[C@H]([C@H](OC)C(=O)[C@@H](O)[C@@H](C)O)C5)OC(C)C2OC(C)=O)OC1C (stereo not given in full)	24.9
COc1cc2c(cc1O)CCN[C@H]2C	-25.8
C/C=C1/CN2CCC1CC2C(O)c1ccnc2ccc(OCCO)cc12 (stereo not given)	-13.2
COc1ccc(C(C)CNCc2ccccc2)cc1 (stereo not given)	-1.35
[Se]=P(c1ccccc1)(N1CC1)N1CC1	10.2
CC1(C)CN=C(NN=C(/C=C/c2ccc(C(F)(F)F)cc2)/C=C/c2ccc(C(F)(F)F)cc2)NC1	10.4
CC1CCC2C(C)C(=O)OC3OC4(C)CCC1C32OO4 (stereo not given)	4.2
CC(=O)NCN(C)[N+](=O)[O-]	-4.95
CCOP(=O)(CC(=O)C1CC1)OCC	-20.5
O=C(O)c1cccc(Cl)c1	6
CC(C)(C)Nc1ccccc1.[C-]#[O+].[C-]#[O+].[C-]#[O+].[Cr]	-2.3
CCNc1ccc([N+](=O)[O-])cc1[N+](=O)[O-]	16.9
CCOP(O)OCC	11.4
CN(C)P(=S)(CCPc1ccccc1)N(C)C (stereo not given)	-23.6
Cn1c2c(c3ccccc31)CCN1OCC=C[C@@H](C(=O)O)[C@@H]21	3.15
CCOC(=O)c1cc2c(cn1)[nH]c1ccccc12	34.2
C[N+](C)(C)CC1(COC(=O)C(O)(c2ccccc2)c2ccccc2)CCCCC1	6.45
COc1ccc(CC(C)NO)cc1 (stereo not given)	8.8
CO[C@@]12[C@@H]3N[C@@H]3CN1C1=C(C(=O)C(NCCC#N)=C(C)C1=O)[C@@H]2COC(N)=O	13.2
O=C(CC(=O)C(F)(F)F)c1ccco1.[Fe]	21.3
Cc1ccc(N=C2OP(=O)(Nc3ccc(C)cc3)Oc3ccccc32)cc1 (stereo not given)	-44.8
CCN(CC)c1ccc([P+](=O)O)cc1	-9.45
Fc1ccc(N=C=S)cc1	-20.2
CCCCCCN(CCCCCC)C1C=CCCC1 (stereo not given)	-11.2
CCOP(=O)(O)C1CCCC(C)[N-]1.CCOP(=O)(O)C1CCCC(C)[N-]1.[Cu+2] (stereo not given)	33.6
ClC1CC2CC1C1CNCC21 (stereo not given)	-14.6
CN1C2CCC1CC(OC(=O)c1cccc(O)c1)C2 (stereo not given)	0.55
